Test: CHI Log D procedure
Type: physicochemical
Details: pH 7.4, CHI Log D
measured_metric: chromatographic logD
Lab note: record the figure alone, no unit after it.

The recorded chromatographic logD for CC(=O)N1CCC[C@]12CC=CCCCC1(CCCC=CCCCCCC[C@@](C)(C(=O)N[C@@H](Cc3cc(F)cc(F)c3)C(=O)N[C@@H](Cc3csc4ccccc34)C(=O)N[C@@H](CCC(N)=O)C(N)=O)NC(=O)[C@H](C(C)C)NC(=O)[C@H](Cc3ccccc3)NC(=O)[C@H](C)NC(=O)[C@H](C)NC(=O)[C@H](CCC(=O)O)NC(=O)[C@H](CC(=O)O)NC1=O)NC(=O)[C@H](C)NC(=O)[C@H](CC(=O)O)NC2=O (stereo partly shown) [I-394] is 3.86

The recorded chromatographic logD for CC(=O)N1CCC[C@]12CC=CCCCC1(CCCC=CCCCCCC[C@@](C)(C(=O)N[C@@H](Cc3ccccc3)C(=O)N[C@@H](Cc3csc4ccccc34)C(=O)N[C@@H](CCC(N)=O)C(N)=O)NC(=O)[C@H](CC(N)=O)NC(=O)[C@H](Cc3ccccc3)NC(=O)[C@H](C)NC(=O)[C@H](C)NC(=O)[C@H](Cc3nn[nH]n3)NC(=O)[C@H](CC(=O)O)NC1=O)NC(=O)[C@H](C)NC(=O)[C@H](CC(=O)O)NC2=O (stereo partly shown) [I-444] is 1.99

The recorded chromatographic logD for CC[C@H](C)[C@@H]1NC(=O)[C@H](CC(=O)O)NC(=O)[C@]2(CC=CCCCC3(CCCC=CCCCCCC[C@@](C)(C(=O)N[C@@H](Cc4ccccc4)C(=O)N[C@@H](Cc4csc5ccccc45)C(=O)N[C@@H](CCC(N)=O)C(N)=O)NC(=O)[C@H](CCC(N)=O)NC(=O)[C@H](Cc4cccc(OC)c4)NC(=O)[C@H](C)NC(=O)[C@H](C)NC(=O)[C@H](CCC(=O)O)NC(=O)[C@H](CC(=O)O)NC3=O)NC1=O)CCCN2C(C)=O (stereo partly shown) [I-724] is 2.42

The recorded chromatographic logD for CC(=O)N1CCC[C@]12CC=CCCCC1(CCCC=CCCCCCC[C@@](C)(C(=O)N[C@@H](Cc3ccccc3Br)C(=O)N[C@@H](Cc3csc4ccccc34)C(=O)N[C@@H](CCC(N)=O)C(N)=O)NC(=O)[C@H](CC(N)=O)NC(=O)[C@H](Cc3ccccc3)NC(=O)[C@H](C)NC(=O)[C@H](C)NC(=O)[C@H](CCC(=O)O)NC(=O)[C@H](CC(=O)O)NC1=O)NC(=O)[C@H](C)NC(=O)[C@H](CC(=O)O)NC2=O (stereo partly shown) [I-436] is 2.16

The recorded chromatographic logD for CC(=O)N1CCC[C@]12CC=CCCCC1(CCCC=CCCCCCC[C@@](C)(C(=O)N[C@@H](Cc3ccsc3)C(=O)N[C@@H](Cc3csc4ccccc34)C(=O)N[C@@H](Cc3c[nH]cn3)C(N)=O)NC(=O)[C@H](CC(N)=O)NC(=O)[C@H](Cc3ccccc3)NC(=O)[C@H](C)NC(=O)[C@H](C)NC(=O)[C@H](CN(CC(=O)O)CC(F)(F)F)NC(=O)[C@H](CC(=O)O)NC1=O)NC(=O)[C@H](CC1CCCCC1)NC(=O)[C@H](CC(=O)O)NC2=O (stereo partly shown) [I-709] is 3.11

The recorded chromatographic logD for CC(=O)N1CCC[C@]12CC=CCCCC1(CCCC=CCCCOC(=O)N3CC[C@@](C(=O)N[C@@H](Cc4ccsc4)C(=O)N[C@@H](Cc4csc5ccccc45)C(=O)N[C@@H](Cc4c[nH]cn4)C(N)=O)(C3)NC(=O)[C@H](CC(N)=O)NC(=O)[C@H](Cc3ccccc3)NC(=O)[C@H](C)NC(=O)[C@H](C)NC(=O)[C@H]([C@@H](C)O)NC(=O)[C@H](CC(=O)O)NC1=O)NC(=O)[C@H](CC(C)(C)C)NC(=O)[C@H](CC(=O)O)NC2=O (stereo partly shown) [I-845] is 2.42

The recorded chromatographic logD for CC(=O)N1CCC[C@]12CC=CCCCC1(CCCC=CCCCCCC[C@@](C)(C(=O)N[C@@H](Cc3ccccc3)C(=O)N[C@@H](Cc3c[nH]c4ccccc34)C(=O)N[C@@H](CCC(N)=O)C(N)=O)NC(=O)[C@H](C(C)C)NC(=O)[C@H](Cc3ccccc3)NC(=O)[C@H](C)NC(=O)[C@H](C)NC(=O)[C@H](Cc3ccccn3)NC(=O)[C@H](CC(=O)O)NC1=O)NC(=O)[C@H](C)NC(=O)[C@H](CC(=O)O)NC2=O (stereo partly shown) [I-270] is 2.5

The recorded chromatographic logD for CC[C@H](C)[C@@H]1NC(=O)[C@H](CC(=O)O)NC(=O)[C@]2(CC=CCCCC3(CCCC=CCCCCCC[C@@](C)(C(=O)N[C@@H](Cc4ccccc4)C(=O)N[C@@H](Cc4csc5ccccc45)C(=O)N[C@@H](CCC(N)=O)C(N)=O)NC(=O)[C@H](CCC(N)=O)NC(=O)[C@H](Cc4ccccc4)NC(=O)[C@H](C)NC(=O)[C@H](C)NC(=O)[C@H](CCC(=O)O)NC(=O)[C@H](CC(=O)O)NC3=O)NC1=O)CCCN2C(=O)CCc1ccccn1 (stereo partly shown) [I-602] is 3.15

The recorded chromatographic logD for CC(=O)N1CCC[C@]12CC=CCCCC1(CCCC=CCCCCCC[C@@](C)(C(=O)N[C@@H](Cc3ccccc3)C(=O)N[C@@H](Cc3c[nH]c4ccccc34)C(=O)N[C@@H](C)C(N)=O)NC(=O)[C@H](C)NC(=O)[C@H](Cc3ccccc3)NC(=O)[C@H](C)NC(=O)[C@H](C)NC(=O)[C@H](CC(=O)O)NC(=O)[C@H](CC(=O)O)NC1=O)NC(=O)[C@H](C)NC(=O)[C@H](CC(=O)O)NC2=O (stereo partly shown) [I-286] is 2.01

The recorded chromatographic logD for CC(=O)N1CCC[C@]12CC=CCCCC1(CCCC=CCCCOC(=O)N3CC[C@@](C(=O)N[C@@H](Cc4ccsc4)C(=O)N[C@@H](Cc4csc5ccccc45)C(N)=O)(C3)NC(=O)[C@H](CC(N)=O)NC(=O)[C@H](Cc3ccccc3)NC(=O)[C@H](C)NC(=O)[C@H](C)NC(=O)[C@H](CCC(=O)O)NC(=O)[C@H](CC(=O)O)NC1=O)NC(=O)[C@H](CC(C)(C)C)NC(=O)[C@H](CC(=O)O)NC2=O (stereo partly shown) [I-786] is 2.3
